Tested on: Renilla
Assay: Renilla signal, LBD, cmpd/DMSO (NR2F6 LBD transfected cells)
Type: cell-based
Details: 10 uM

- compound: "O=S1(=O)C[C@H](NCc2ccco2)[C@@H](S(=O)(=O)c2cccs2)C1"
  Renilla LBD, cmpd/DMSO (mean): 0.8
- compound: "COCCN[C@H]1CS(=O)(=O)C[C@@H]1S(=O)(=O)c1ccc(Cl)cc1"
  Renilla LBD, cmpd/DMSO (mean): 1.0
- compound: "CC(C)OCCCN[C@H]1CS(=O)(=O)C[C@@H]1S(=O)(=O)c1ccc(Cl)cc1"
  Renilla LBD, cmpd/DMSO (mean): 0.9
- compound: "O=S1(=O)C[C@H](NCC2CCCO2)[C@@H](S(=O)(=O)c2cccs2)C1 (stereo partly shown)"
  Renilla LBD, cmpd/DMSO (mean): 1.0
- compound: "O=S1(=O)C[C@H](NCCCc2ccccc2)[C@@H](S(=O)(=O)c2ccc(Cl)cc2)C1"
  Renilla LBD, cmpd/DMSO (mean): 0.8
- compound: "O=S1(=O)C[C@H](N2CCCC2)[C@@H](S(=O)(=O)c2cccs2)C1"
  Renilla LBD, cmpd/DMSO (mean): 0.6
- compound: "CC(C)CCN[C@H]1CS(=O)(=O)C[C@@H]1S(=O)(=O)c1ccc(Cl)cc1"
  Renilla LBD, cmpd/DMSO (mean): 0.8

----------
Molecular target: NR2F6 LBD (Homo sapiens, UniProt P10588)
Construct: expressed in transfected cells
Sequence (P10588 165-393 limits assumed): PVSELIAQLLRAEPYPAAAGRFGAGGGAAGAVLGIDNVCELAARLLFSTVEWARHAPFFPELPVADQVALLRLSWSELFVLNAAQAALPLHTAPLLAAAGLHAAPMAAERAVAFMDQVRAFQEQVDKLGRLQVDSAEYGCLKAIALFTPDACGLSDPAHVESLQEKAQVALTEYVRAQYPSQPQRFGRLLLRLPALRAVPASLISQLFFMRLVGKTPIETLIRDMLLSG
Assay: NR2F6 LBD transient transfection
Format: cell-based
Conditions: 10 uM
measurementKind: Firefly LBD, cmpd/DMSO (mean)

- molecule: "O=S1(=O)C[C@H](NCc2ccco2)[C@@H](S(=O)(=O)c2cccs2)C1"
  measurementKind: "Firefly LBD, cmpd/DMSO (mean)"
  assayValue: 1.6
- molecule: "O=S1(=O)C[C@H](NCCCc2ccccc2)[C@@H](S(=O)(=O)c2ccc(Cl)cc2)C1"
  measurementKind: "Firefly LBD, cmpd/DMSO (mean)"
  assayValue: 3.2
- molecule: "O=S1(=O)C[C@H](N2CCCC2)[C@@H](S(=O)(=O)c2cccs2)C1"
  measurementKind: "Firefly LBD, cmpd/DMSO (mean)"
  assayValue: 1.2
- molecule: "CC(C)CCN[C@H]1CS(=O)(=O)C[C@@H]1S(=O)(=O)c1ccc(Cl)cc1"
  measurementKind: "Firefly LBD, cmpd/DMSO (mean)"
  assayValue: 4.3
- molecule: "COCCN[C@H]1CS(=O)(=O)C[C@@H]1S(=O)(=O)c1ccc(Cl)cc1"
  measurementKind: "Firefly LBD, cmpd/DMSO (mean)"
  assayValue: 2.6
- molecule: "CC(C)OCCCN[C@H]1CS(=O)(=O)C[C@@H]1S(=O)(=O)c1ccc(Cl)cc1"
  measurementKind: "Firefly LBD, cmpd/DMSO (mean)"
  assayValue: 3.7
- molecule: "O=S1(=O)C[C@H](NCC2CCCO2)[C@@H](S(=O)(=O)c2cccs2)C1 (stereo partly shown)"
  measurementKind: "Firefly LBD, cmpd/DMSO (mean)"
  assayValue: 1.9

----------
Biological target: NR2F6 (Homo sapiens, UniProt P10588)
Construct: expressed in transfected cells; also transient transfection
Assay: NR2F6 agonist screening, Firefly signal cmpd/DMSO
Assay type: cell-based
Details: 1% FBS; 40 uM
Assign labels as follows, please: satisfied for Firefly, F4/pGL4 for S/B(F4) > 3 below 3; not satisfied for Firefly, F4/pGL4 for S/B(F4) > 3 equal to or exceeding 3.

- molecule: "Cc1cccc(CN[C@H]2CS(=O)(=O)C[C@@H]2S(=O)(=O)c2ccc(Cl)cc2)c1 [Compound D127]"
  systemTested: "NR2F6 (Homo sapiens, UniProt P10588)"
  group: "satisfied"
- molecule: "CC(C)OCCCN[C@H]1CS(=O)(=O)C[C@@H]1S(=O)(=O)c1ccc(Cl)cc1 [Compound D138]"
  systemTested: "NR2F6 (Homo sapiens, UniProt P10588)"
  group: "satisfied"
- molecule: "O=S1(=O)C[C@H](NCCCc2ccccc2)[C@@H](S(=O)(=O)c2ccc(Cl)cc2)C1 [Compound D137]"
  systemTested: "NR2F6 (Homo sapiens, UniProt P10588)"
  group: "satisfied"
- molecule: "COCCN[C@H]1CS(=O)(=O)C[C@@H]1S(=O)(=O)c1cccs1 [Compound D107]"
  systemTested: "NR2F6 (Homo sapiens, UniProt P10588)"
  group: "satisfied"
- molecule: "O=S1(=O)C[C@H](NCC2CCCO2)[C@@H](S(=O)(=O)c2cccs2)C1 (some centres unmarked) [Compound D134]"
  systemTested: "NR2F6 (Homo sapiens, UniProt P10588)"
  group: "not satisfied"
- molecule: "C[C@@H]1C[C@H](C)CN([C@H]2CS(=O)(=O)C[C@@H]2S(=O)(=O)c2ccccc2)C1 [Compound D112]"
  systemTested: "NR2F6 (Homo sapiens, UniProt P10588)"
  group: "satisfied"
- molecule: "COCCN[C@H]1CS(=O)(=O)C[C@@H]1S(=O)(=O)c1ccc(Cl)cc1 [Compound D136]"
  systemTested: "NR2F6 (Homo sapiens, UniProt P10588)"
  group: "not satisfied"

----------
Assay: PK in rat plasma
Assay type: in vivo
Conditions: rat; Table 36; PO plasma, 7.53 mg/kg

- molSmiles: "COCCN[C@H]1CS(=O)(=O)C[C@@H]1S(=O)(=O)c1ccc(Cl)cc1"
  MRT inf, h: 1.33

----------
Molecular target: NR2F6 (Homo sapiens)
Construct: expressed in transfected cells; also transient transfection
Experiment: NR2F6 agonist screening, Firefly signal cmpd/DMSO
Format: cell-based
Conditions: 40 uM; clone F4
Assign labels as follows, please: yes (1) for Firefly F4, cmpd/DMSO (mean) below 0.8; no (0) for Firefly F4, cmpd/DMSO (mean) equal to or exceeding 0.8.

- compound: "CCOC(=O)c1cnc2c(Cl)cc(Cl)cc2c1NCCCN1CCCC1"
  group: "yes (1)"
- compound: "CCCNc1nc(N2CCOCC2)nc(N2CC3CC(C2)c2cccc(=O)n2C3)n1 (stereo not drawn)"
  group: "no (0)"
- compound: "Cc1cc(C)c2ncc(C(=O)O)c(NCCCN(C)C)c2c1"
  group: "no (0)"
- compound: "CC1CCN(c2nc(N3CCC(C)CC3)nc(N3CCn4c(cccc4=O)C3)n2)CC1"
  group: "no (0)"
- compound: "CNc1c(C#N)c(C(F)(F)F)nc2ccc(Oc3ccccc3)cc12"
  group: "yes (1)"
- compound: "COc1ccc2nc(C(F)(F)F)c(C#N)c(NCc3ccc(Cl)cc3)c2c1"
  group: "yes (1)"
- compound: "Cc1cc(-c2ccccc2)nc(Nc2nc(-c3ccccc3)c(CC(=O)O)s2)n1"
  group: "no (0)"

----------
Molecular target: NR2F6 (Homo sapiens)
Construct: expressed in transfected cells; also transient transfection
Sequence (P10588 1-404): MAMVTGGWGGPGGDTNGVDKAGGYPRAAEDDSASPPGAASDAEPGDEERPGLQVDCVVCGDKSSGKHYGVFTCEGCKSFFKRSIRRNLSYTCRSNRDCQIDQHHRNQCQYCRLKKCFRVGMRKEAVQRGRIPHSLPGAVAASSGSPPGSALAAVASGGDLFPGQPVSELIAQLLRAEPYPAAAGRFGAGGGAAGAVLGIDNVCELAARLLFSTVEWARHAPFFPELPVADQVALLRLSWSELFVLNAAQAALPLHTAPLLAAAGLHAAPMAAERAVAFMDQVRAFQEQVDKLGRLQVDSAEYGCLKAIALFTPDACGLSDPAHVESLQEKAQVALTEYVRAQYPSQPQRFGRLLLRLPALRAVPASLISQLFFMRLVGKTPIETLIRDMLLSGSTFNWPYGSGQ
Assay: NR2F6 agonist screening, Firefly signal cmpd/DMSO
Assay type: cell-based
Conditions: 10% FBS; 40 uM

- compound: "COCCN[C@H]1CS(=O)(=O)C[C@@H]1S(=O)(=O)c1ccc(Cl)cc1"
  F4, Firefly/Renilla for S/B(F4) > 3: 3.5
- compound: "C[C@@H]1C[C@H](C)CN([C@H]2CS(=O)(=O)C[C@@H]2S(=O)(=O)c2ccccc2)C1"
  F4, Firefly/Renilla for S/B(F4) > 3: 2.3
- compound: "CC(C)OCCCN[C@H]1CS(=O)(=O)C[C@@H]1S(=O)(=O)c1ccc(Cl)cc1"
  F4, Firefly/Renilla for S/B(F4) > 3: 3.2
- compound: "CCC(C)N[C@H]1CS(=O)(=O)C[C@@H]1S(=O)(=O)c1ccc(C)cc1 (some centres unmarked)"
  F4, Firefly/Renilla for S/B(F4) > 3: 3.2
- compound: "CCC(C)N[C@H]1CS(=O)(=O)C[C@@H]1S(=O)(=O)c1ccc(Cl)cc1 (some centres unmarked)"
  F4, Firefly/Renilla for S/B(F4) > 3: 1.3
- compound: "O=S1(=O)C[C@H](N2CCCCC2)[C@@H](S(=O)(=O)c2cccs2)C1"
  F4, Firefly/Renilla for S/B(F4) > 3: 1.4
- compound: "O=S1(=O)C[C@H](NC2CCCCCC2)[C@@H](S(=O)(=O)c2ccc(Cl)cc2)C1"
  F4, Firefly/Renilla for S/B(F4) > 3: 2.4
- compound: "O=S1(=O)C[C@H](NCC2CCCO2)[C@@H](S(=O)(=O)c2cccs2)C1 (some centres unmarked)"
  F4, Firefly/Renilla for S/B(F4) > 3: 2.3
- compound: "CC(C)N[C@H]1CS(=O)(=O)C[C@@H]1S(=O)(=O)c1ccc(Cl)cc1"
  F4, Firefly/Renilla for S/B(F4) > 3: 2.8
- compound: "O=S1(=O)C[C@H](NCCc2cccs2)[C@@H](S(=O)(=O)c2ccc(Cl)cc2)C1"
  F4, Firefly/Renilla for S/B(F4) > 3: 2.2
- compound: "O=S1(=O)C[C@H](NC2CCCCC2)[C@@H](S(=O)(=O)c2ccc(Cl)cc2)C1"
  F4, Firefly/Renilla for S/B(F4) > 3: 1.7
- compound: "O=S1(=O)C[C@H](NCc2ccco2)[C@@H](S(=O)(=O)c2cccs2)C1"
  F4, Firefly/Renilla for S/B(F4) > 3: 1.9
- compound: "O=S1(=O)C[C@H](NCCCc2ccccc2)[C@@H](S(=O)(=O)c2ccc(Cl)cc2)C1"
  F4, Firefly/Renilla for S/B(F4) > 3: 3.3
- compound: "O=S1(=O)C[C@H](NC2CCCC2)[C@@H](S(=O)(=O)c2ccc(F)cc2)C1"
  F4, Firefly/Renilla for S/B(F4) > 3: 2.1

Source of measurements: patent US11377442B2
